# tgt: T1, hu INSR(ECD)-muIgG1Fc (human; mouse, Glycosylated. 87% of the preparation was cleaved between the alpha and beta chains (RKRR site), which stay disulfide-linked. Dimer through the receptor and the murine Fc.)
# T1 construct: 87% processed into α and β chains; also called INSR(ECD)-muFc; INSR-mFc
# test.description: phage Fab ELISA, plate coated with INSR-mFc at 5 µg/ml
attribute.measured: binding result

L33H33 phage-displayed Fab (Fab, V domains shown) VH: QVQLQESGPGLVKPSGTLSLTCAVSGGSISSSNWWSWVRQPPGKGLEWIGEIYHSGSTNYNPSLKSRVTISVDKSKNQFSLKLSSVTAADTAVYYCARGLGDSSGYILWGQGTMVTVSS VL: EIVLTQSPLSLPVTPGEPASISCRSSQSLLHSNGYNYLDWYLQKPGQSPQLLMYLVSNRASGVPERFSGSGSGTDFTLKISRVEAEDVGVYYCMQTLQTPLSFGQGTKLEIK :: no binding
L51H51 phage-displayed Fab (Fab, V domains shown) VH: QVQLVQSGAEVKKPGSSVKVSCKASGGTFSSYAISWVRQAPGQGLEWMGIINPSGGSTSYAQKFQGRVTITRDTSASTAYMELSSLRSEDTAVYYCARDRWRYDAFDIWGQGTMVTVSS VL: NFMLTQPHSVSESPGKTVTISCTGSGGNIASNYVQWYQQRPGRAPTTVIYEDNRRPSGVPDRFSGSIDSSSNSASLTISGLKTEDEADYYCQSYDPYNRVFGGGTKLTVL :: no binding
L12H12 phage-displayed Fab (Fab, V domains shown) VH: EVQLVESGGGLVQPGGSLRLSCAASGFTFSSYAMSWVRQAPGKGLEWVSAISGSGGSTYYADSVKGRFTISRDNSKNTLYLQMNSLSADDTAVYFCASGGWYGDYFDYWGQGTLVTVSS VL: NFMLTQPHSVSESPGKTVTISCTRSSGSIASNYVQWYQQRPGSSPTTVIYEDNQRPSGVPDRFSGSIDSSSNSASLTISGLKTEDEADYYCQSYDSSNQRVFGGGTKLTVL :: no binding
L49H49 phage-displayed Fab (Fab, V domains shown) VH: QVQLQQWGAGLLKPSETLSLTCAVYGGSFSGYYWSWIRQPPGKGLEWIGEINHSGSTNYNPSLKSRVTISVDTSKNQFSLKLSSVTAADTAVYYCARVGYSHGEEVLDVWGKGTTVTVSS VL: NFMLTQPHSVSESPGKTVSISCTRNSGSIASNFVQWYQQRPGSAPTIVIYEDNQRPSAVPTRFSGSIDRSSNSASLTISGLTTEDEADYYCQSYDSANVIFGGGTKLTVL :: no binding

Could you now consider this next binder?
binding result reported for this binder L52H52 phage-displayed Fab (Fab, V domains shown) VH: EVQLVESGPGLVKPSGTLSLTCAVSGGSISSSNWWSWVRQPPGKGLEWIGEIYHSGSTNYNPSLKSRVTISVDKSKNQFSLKLSSVTAADTAVYYCAREKSGMDVWGQGTTVTVSS VL: EIVMTQSPLSLPVTPGEPASISCRSSQSLLHTNGYDYLDWYLQKPGQSPQLLIYLGSTRASGVPDRFSGSGSGTDFTLKISRVEAEDVGVYYCMQAFQTPLTFGGGTKMEIK : no binding

Where these numbers come from: patent US20140037642A1
